# SUBJECT_OF_TEST: Prostaglandin D2 receptor (Homo sapiens)
# Sequence (Q13258 whole entry): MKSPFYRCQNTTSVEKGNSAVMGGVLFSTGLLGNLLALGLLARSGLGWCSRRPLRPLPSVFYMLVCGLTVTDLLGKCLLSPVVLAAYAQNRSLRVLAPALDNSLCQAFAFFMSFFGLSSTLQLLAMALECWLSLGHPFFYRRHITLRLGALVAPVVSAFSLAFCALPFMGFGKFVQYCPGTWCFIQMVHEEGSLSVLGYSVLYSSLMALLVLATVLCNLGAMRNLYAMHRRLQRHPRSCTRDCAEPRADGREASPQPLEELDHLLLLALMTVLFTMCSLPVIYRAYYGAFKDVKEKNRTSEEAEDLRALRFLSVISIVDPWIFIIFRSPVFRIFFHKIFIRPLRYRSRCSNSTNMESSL
# ASSAY_NAME: Displacement of [3H]PGD2 from human DP receptor expressed in HEK293 cells by scintillation counting in presence of 50% plasma
# Format: cell-based
MEASUREMENT_TYPE: IC50 (µM)

(P) CCCc1cc(-c2ccc(Oc3ccc(CC(=O)O)cc3OC)c(NS(=O)(=O)c3ccc(Cl)cc3Cl)c2)n[nH]1
(Q) CCCc1nc(-c2ccc(Oc3ccc(CC(=O)O)cc3OC)c(NS(=O)(=O)c3ccc(Cl)cc3Cl)c2)c[nH]1
Param metric = IC50; output whichever of P , Q has the minimum value. Refer to your chosen item by its label in the answer. P

====

# SUBJECT_OF_TEST: Prostaglandin D2 receptor 2 (Homo sapiens)
# Sequence (Q9Y5Y4 whole entry): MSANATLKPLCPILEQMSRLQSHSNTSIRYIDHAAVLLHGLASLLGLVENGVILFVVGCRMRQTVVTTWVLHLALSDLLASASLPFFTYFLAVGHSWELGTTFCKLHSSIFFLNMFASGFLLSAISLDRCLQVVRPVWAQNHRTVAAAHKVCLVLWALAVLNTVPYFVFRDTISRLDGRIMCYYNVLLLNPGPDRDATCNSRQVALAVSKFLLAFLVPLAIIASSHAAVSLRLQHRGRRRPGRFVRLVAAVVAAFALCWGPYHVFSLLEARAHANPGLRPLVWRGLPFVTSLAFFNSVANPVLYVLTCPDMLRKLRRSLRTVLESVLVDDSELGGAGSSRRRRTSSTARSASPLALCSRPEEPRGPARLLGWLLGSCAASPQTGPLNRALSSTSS
# ASSAY_NAME: Displacement of [3H]PGD2 from human CRTH2 receptor expressed in HEK293 cells by scintillation counting in presence of 50% plasma
# Assay type: cell-based
MEASUREMENT_TYPE: IC50 (µM)

(I) CCCc1cc(-c2ccc(Oc3ccc(CC(=O)O)cc3OC)c(NS(=O)(=O)c3ccc(Cl)cc3Cl)c2)n[nH]1
(II) CCCc1nc(-c2ccc(Oc3ccc(CC(=O)O)cc3OC)c(NS(=O)(=O)c3ccc(Cl)cc3Cl)c2)c[nH]1
Param metric = IC50; output whichever of I , II has the minimum value. Refer to your chosen item by its label in the answer. I
(I: 0.008 µM, II: 0.02 µM)
